These measurements were taken from paper PMC12529666.

# study_system: AGO2 L192P (Homo sapiens, UniProt Q9UKV8 1-859, L192P;S387D;S824A;S828D;S831D;S834A)
# Sequence (Q9UKV8 whole entry L192P/S387D/S824A/S828D/S831D/S834A): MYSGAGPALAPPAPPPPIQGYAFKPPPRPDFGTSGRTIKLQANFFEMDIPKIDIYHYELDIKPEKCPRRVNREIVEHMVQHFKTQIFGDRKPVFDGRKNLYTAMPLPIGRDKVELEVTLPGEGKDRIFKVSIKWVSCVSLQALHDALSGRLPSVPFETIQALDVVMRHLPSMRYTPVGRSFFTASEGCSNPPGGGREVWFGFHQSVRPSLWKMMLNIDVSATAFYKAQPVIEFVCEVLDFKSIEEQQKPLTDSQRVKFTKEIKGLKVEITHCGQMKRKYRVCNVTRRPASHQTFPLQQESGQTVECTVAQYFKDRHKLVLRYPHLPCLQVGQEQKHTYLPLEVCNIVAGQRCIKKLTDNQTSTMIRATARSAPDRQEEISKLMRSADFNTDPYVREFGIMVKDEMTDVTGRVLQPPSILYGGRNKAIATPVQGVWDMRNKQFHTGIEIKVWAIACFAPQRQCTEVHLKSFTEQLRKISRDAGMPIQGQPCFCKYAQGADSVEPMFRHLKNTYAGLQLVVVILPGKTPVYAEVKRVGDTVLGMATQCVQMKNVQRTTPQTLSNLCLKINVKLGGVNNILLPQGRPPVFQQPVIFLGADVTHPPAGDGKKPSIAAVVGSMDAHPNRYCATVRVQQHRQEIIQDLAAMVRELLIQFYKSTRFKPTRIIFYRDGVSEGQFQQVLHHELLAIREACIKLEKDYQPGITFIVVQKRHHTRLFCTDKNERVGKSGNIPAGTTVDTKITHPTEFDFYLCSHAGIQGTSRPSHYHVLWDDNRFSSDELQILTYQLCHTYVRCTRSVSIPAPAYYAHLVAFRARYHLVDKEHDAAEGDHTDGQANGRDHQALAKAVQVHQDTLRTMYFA
# assay_protocol: RNA Bind-n-Seq (nitrocellulose filter binding and sequencing); miR-122 guide loaded in AGO2; 60 min incubation; 30 mM Tris pH 8.0, 100 mM potassium acetate, 2 mM magnesium acetate, 0.5 mM TCEP, 0.005% NP-40, 0.01 mg/ml yeast tRNA; 3 nM AGO2-miR-122, 100 nM RNA library; 60; high values mean tight binding
# measurement_conditions: protein: recombinant; tags: His6 (N-terminal, pFastBac HTA)
property: binding signal

GTGCTTTG (ssRNA, constant regions annealed to DNA blockers; guide miR-122 5' phosphate) RNA 1: GAGUUCUACAGUCCGACGAUCCCAACGUGCUUUGCACCUGGAAUUCUCGGGUGCCAA RNA 2: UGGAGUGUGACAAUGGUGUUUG DNA 1: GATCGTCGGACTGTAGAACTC DNA 2: TTGGCACCCGAGAATTCCA :: 0.45 fold enrichment over input
ATGCCCTG (ssRNA, constant regions annealed to DNA blockers; guide miR-122 5' phosphate) RNA 1: GAGUUCUACAGUCCGACGAUCCCAACAUGCCCUGCACCUGGAAUUCUCGGGUGCCAA RNA 2: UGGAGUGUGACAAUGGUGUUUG DNA 1: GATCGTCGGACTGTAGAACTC DNA 2: TTGGCACCCGAGAATTCCA :: 0.377 fold enrichment over input
ACACCCCG (ssRNA, constant regions annealed to DNA blockers; guide miR-122 5' phosphate) RNA 1: GAGUUCUACAGUCCGACGAUCCCAACACACCCCGCACCUGGAAUUCUCGGGUGCCAA RNA 2: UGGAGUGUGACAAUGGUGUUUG DNA 1: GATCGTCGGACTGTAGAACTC DNA 2: TTGGCACCCGAGAATTCCA :: 0.517 fold enrichment over input
GTATTCTA (ssRNA, constant regions annealed to DNA blockers; guide miR-122 5' phosphate) RNA 1: GAGUUCUACAGUCCGACGAUCCCAACGUAUUCUACACCUGGAAUUCUCGGGUGCCAA RNA 2: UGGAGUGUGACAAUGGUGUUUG DNA 1: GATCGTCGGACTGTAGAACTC DNA 2: TTGGCACCCGAGAATTCCA :: 0.434 fold enrichment over input
ACATTCCG (ssRNA, constant regions annealed to DNA blockers; guide miR-122 5' phosphate) RNA 1: GAGUUCUACAGUCCGACGAUCCCAACACAUUCCGCACCUGGAAUUCUCGGGUGCCAA RNA 2: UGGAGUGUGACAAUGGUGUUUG DNA 1: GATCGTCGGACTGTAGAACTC DNA 2: TTGGCACCCGAGAATTCCA :: 0.382 fold enrichment over input
ACACTTTG (ssRNA, constant regions annealed to DNA blockers; guide miR-122 5' phosphate) RNA 1: GAGUUCUACAGUCCGACGAUCCCAACACACUUUGCACCUGGAAUUCUCGGGUGCCAA RNA 2: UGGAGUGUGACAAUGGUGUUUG DNA 1: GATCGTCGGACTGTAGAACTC DNA 2: TTGGCACCCGAGAATTCCA :: 0.388 fold enrichment over input

Exercise: Check the records and state binding signal for GCATCCCA (ssRNA, constant regions annealed to DNA blockers; guide miR-122 5' phosphate) RNA 1: GAGUUCUACAGUCCGACGAUCCCAACGCAUCCCACACCUGGAAUUCUCGGGUGCCAA RNA 2: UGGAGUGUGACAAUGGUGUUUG DNA 1: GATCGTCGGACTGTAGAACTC DNA 2: TTGGCACCCGAGAATTCCA
Key: 0.48 fold enrichment over input

Exercise: Check the records and state binding signal for ATATTTTA (ssRNA, constant regions annealed to DNA blockers; guide miR-122 5' phosphate) RNA 1: GAGUUCUACAGUCCGACGAUCCCAACAUAUUUUACACCUGGAAUUCUCGGGUGCCAA RNA 2: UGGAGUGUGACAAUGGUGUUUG DNA 1: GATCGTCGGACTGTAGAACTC DNA 2: TTGGCACCCGAGAATTCCA
Key: 0.509 fold enrichment over input
